System: SLVL (B-Cell Non-Hodgkin's Lymphoma);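 further: after 72 h of two-drug dosing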
Test Details: Bliss excess, mean over the matrix (fraction); higher = more synergy
Kindly return y if reported Bliss excess is no lower than 0.01; return n if it is lower.

Would you please look over these solved cases?
# Molecule, Answer Label
records = [
    ("O=C(c1cc(Cc2n[nH]c(=O)c3ccccc23)ccc1F)N1CCN(C(=O)C2CC2)CC1 [Olaparib] + CC1(C)CCC(CN2CCN(c3ccc(C(=O)NS(=O)(=O)c4ccc(NCC5CCOCC5)c([N+](=O)[O-])c4)c(Oc4cnc5[nH]ccc5c4)c3)CC2)=C(c2ccc(Cl)cc2)C1 [Venetoclax] (first compound max 10 µM, 7x7, partner max 1 µM)", "y"),
    ("O=C(c1cc(Cc2n[nH]c(=O)c3ccccc23)ccc1F)N1CCN(C(=O)C2CC2)CC1 [Olaparib] + COc1nnc2ccc(N3CCC(c4ccc(OCCN5CCN(C)C(=O)[C@H]5C)cc4)CC3)nn12 [AZD5153] (first compound max 10 µM, 7x7, partner max 1 µM)", "y"),
    ("COc1nnc2ccc(N3CCC(c4ccc(OCCN5CCN(C)C(=O)[C@H]5C)cc4)CC3)nn12 [AZD5153] + C=CCn1c(=O)c2cnc(Nc3ccc(N4CCN(C)CC4)cc3)nc2n1-c1cccc(C(C)(C)O)n1 [AZD1775] (first compound max 1 µM, partner max 1 µM)", "n"),
]

// query Hi, just wondering whether CS(=O)(=O)CCNCc1ccc(-c2ccc3ncnc(Nc4ccc(OCc5cccc(F)c5)c(Cl)c4)c3c2)o1 [Lapatinib] + C[C@@H](Oc1cc(-c2cnn(C3CCNCC3)c2)cnc1N)c1c(Cl)ccc(F)c1Cl [Crizotinib] (first compound max 10 µM, 7x7, partner max 10 µM) shows Bliss excess of 0.01 or higher.
// result n

// query Does the reported Bliss excess for Cc1cc2ncnn2cc1Nc1ncc2c(n1)n(C1CCOCC1)c(=O)n2C [AZD7648] + C[C@@H]1COCCN1C2=NC(=NC(=C2)C3(CC3)[S@](=N)(=O)C)C4=C5C=CNC5=NC=C4 [AZD6738] (first compound max 10 µM, 7x7, partner max 10 µM) fall at or above the 0.01 mark?
// result n

----------
Below, each of the compounds is paired with its reported combination Emax value.
System: MEG-01 (Chronic Myelogenous Leukemia)
Test Details: combination Emax (second highest fraction inhibited in the dose matrix, 72 h); higher = more inhibition; extreme values may be limits of the assay
Just the number, please, no unit attached.

Example entries begin here.
# Compound, Parameter, Value Reported
records = [
    ("COc1cccc(OCCCN)c1-c1cc(Nc2cnc(C#N)cn2)n[nH]1 [Prexasertib] + Cc1cc2ncnn2cc1Nc1ncc2c(n1)n(C1CCOCC1)c(=O)n2C [AZD7648] (first compound max 1 µM, 7x7, partner max 10 µM)", "combination Emax", 0.926),
    ("CCN(CCO)CCCOc1ccc2c(Nc3cc(CC(=O)Nc4cccc(F)c4)[nH]n3)ncnc2c1 [AZD2811] + C=CCn1c(=O)c2cnc(Nc3ccc(N4CCN(C)CC4)cc3)nc2n1-c1cccc(C(C)(C)O)n1 [AZD1775] (first compound max 1 µM, partner max 1 µM)", "combination Emax", 0.863),
]

Now for another entry.
// query State the recorded combination Emax for this entry: CC(=O)c1c(C)c2cnc(Nc3ccc(N4CCNCC4)cn3)nc2n(C2CCCC2)c1=O [Palbociclib] + Cc1c2c(nn1C)CSCc1cc(n(C)n1)CSc1cc(c3ccccc3c1)OCCCc1c(C(=O)O)n(C)c3c-2c(Cl)ccc13 [AZD5991] (first compound max 10 µM, 7x7, partner max 1 µM)
// result 0.668

----------
Catalogue of compounds with associated combination Emax
Tested on: HCC38 (Breast Carcinoma)
Test Details: combination Emax (second highest fraction inhibited in the dose matrix, 72 h); higher = more inhibition; extreme values may be limits of the assay
Answer using only a numeral; do not append any unit.

Solved cases below.
# Compound, combination Emax
rows = [
    ("O=C(c1cc(Cc2n[nH]c(=O)c3ccccc23)ccc1F)N1CCN(C(=O)C2CC2)CC1 [Olaparib] + CC1(C)CCC(CN2CCN(c3ccc(C(=O)NS(=O)(=O)c4ccc(NCC5CCOCC5)c([N+](=O)[O-])c4)c(Oc4cnc5[nH]ccc5c4)c3)CC2)=C(c2ccc(Cl)cc2)C1 [Venetoclax] (first compound max 10 µM, 7x7, partner max 1 µM)", 0.179),
    ("C[C@@H](Nc1cc(F)cc(F)c1)c1cc(C(=O)N(C)C)cc2c(=O)cc(N3CCOCC3)oc12 [AZD8186] + CC(=O)c1c(C)c2cnc(Nc3ccc(N4CCNCC4)cn3)nc2n(C2CCCC2)c1=O [Palbociclib] (first compound max 10 µM, 7x7, partner max 10 µM)", 0.209),
    ("N#Cc1cnc(Nc2cc(NC[C@H]3CNCCO3)c(C(F)(F)F)cn2)cn1 [SRA737] + C=CCn1c(=O)c2cnc(Nc3ccc(N4CCN(C)CC4)cc3)nc2n1-c1cccc(C(C)(C)O)n1 [AZD1775] (first compound max 10 µM, partner max 1 µM)", 0.576),
    ("NC1(C(=O)N[C@@H](CCO)c2ccc(Cl)cc2)CCN(c2ncnc3[nH]ccc23)CC1 [Capivasertib] + CC(=O)c1c(C)c2cnc(Nc3ccc(N4CCNCC4)cn3)nc2n(C2CCCC2)c1=O [Palbociclib] (first compound max 10 µM, 7x7, partner max 10 µM)", 0.209),
    ("CCN(CCO)CCCOc1ccc2c(Nc3cc(CC(=O)Nc4cccc(F)c4)[nH]n3)ncnc2c1 [AZD2811] + C=CCn1c(=O)c2cnc(Nc3ccc(N4CCN(C)CC4)cc3)nc2n1-c1cccc(C(C)(C)O)n1 [AZD1775] (first compound max 1 µM, partner max 1 µM)", 0.489),
]

// query GET /values?readout=combination Emax&item= C=CCn1c(=O)c2cnc(Nc3ccc(N4CCN(C)CC4)cc3)nc2n1-c1cccc(C(C)(C)O)n1 [AZD1775] + C1CN(CCC1(C(=O)N[C@@H](CCO)C2=CC=C(C=C2)Cl)N)C3=NC=NC4=C3C=CN4 [Capivasertib] (first compound max 3 µM, partner max 3 µM)
// result 0.748

// query Dear colleague, I am looking for the recorded combination Emax of the following compound: CN(C)CCCOc1ccc(-c2ccc3ncc4c(c3c2)n(C2CCOCC2)c(=O)n4C)cn1 [AZD0156] + C[C@@H]1COCCN1C2=NC(=NC(=C2)C3(CC3)[S@](=N)(=O)C)C4=C5C=CNC5=NC=C4 [AZD6738] (first compound max 1 µM, 7x7, partner max 10 µM)
// result 0.558

----------
Tested on: SW48 (Colorectal Carcinoma)
Test Details: combination Emax (second highest fraction inhibited in the dose matrix, 72 h); higher = more inhibition; extreme values may be limits of the assay
Returns one of 1.0 or 0.0; 1.0 when combination Emax is >= 0.7.

# Compound, Answer Label
records = [
    ("Cc1c2c(nn1C)CSCc1cc(n(C)n1)CSc1cc(c3ccccc3c1)OCCCc1c(C(=O)O)n(C)c3c-2c(Cl)ccc13 [AZD5991] + CCN(CCO)CCCOc1ccc2c(Nc3cc(CC(=O)Nc4cccc(F)c4)[nH]n3)ncnc2c1 [AZD2811] (first compound max 1 µM, 7x7, partner max 1 µM)", 1.0),
    ("Cc1c2c(nn1C)CSCc1cc(n(C)n1)CSc1cc(c3ccccc3c1)OCCCc1c(C(=O)O)n(C)c3c-2c(Cl)ccc13 [AZD5991] + C[C@@H](Nc1cc(F)cc(F)c1)c1cc(C(=O)N(C)C)cc2c(=O)cc(N3CCOCC3)oc12 [AZD8186] (first compound max 1 µM, 7x7, partner max 3 µM)", 0.0),
    ("CCc1c2c(nc3ccc(O)cc13)-c1cc3c(c(=O)n1C2)COC(=O)[C@]3(O)CC [SN-38] + CN(C)CCCOc1ccc(-c2ccc3ncc4c(c3c2)n(C2CCOCC2)c(=O)n4C)cn1 [AZD0156] (first compound max 0.3 µM, 7x7, partner max 1 µM)", 1.0),
]

// query Is reported combination Emax greater than or equal to 0.7 here: Cc1c2c(nn1C)CSCc1cc(n(C)n1)CSc1cc(c3ccccc3c1)OCCCc1c(C(=O)O)n(C)c3c-2c(Cl)ccc13 [AZD5991] + CN(C)CCCOc1ccc(-c2ccc3ncc4c(c3c2)n(C2CCOCC2)c(=O)n4C)cn1 [AZD0156] (first compound max 1 µM, 7x7, partner max 1 µM)
// result 0.0

// query Has Cc1c2c(nn1C)CSCc1cc(n(C)n1)CSc1cc(c3ccccc3c1)OCCCc1c(C(=O)O)n(C)c3c-2c(Cl)ccc13 [AZD5991] + Nc1ccn([C@@H]2O[C@H](CO)[C@@H](O)C2(F)F)c(=O)n1 [Gemcitabine] (first compound max 1 µM, 7x7, partner max 0.3 µM) a recorded combination Emax greater than or equal to 0.7?
// result 1.0

// query Could you verify whether the entry CN(CCO)CC[C@H](CSc1ccccc1)Nc1ccc(S(=O)(=O)NC(=O)c2ccc(N3CCC([C@@H](O)c4ccccc4-c4ccc(Cl)cc4)CC3)cc2)cc1S(=O)(=O)C(F)(F)F [AZD4320] + C1CN(CCC1(C(=O)N[C@@H](CCO)C2=CC=C(C=C2)Cl)N)C3=NC=NC4=C3C=CN4 [Capivasertib] (first compound max 1 µM, 7x7, partner max 3 µM) shows combination Emax of no less than 0.7?
// result 1.0

// query Item Cc1c2c(nn1C)CSCc1cc(n(C)n1)CSc1cc(c3ccccc3c1)OCCCc1c(C(=O)O)n(C)c3c-2c(Cl)ccc13 [AZD5991] + Cc1cc2ncnn2cc1Nc1ncc2c(n1)n(C1CCOCC1)c(=O)n2C [AZD7648] (first compound max 1 µM, 7x7, partner max 10 µM) with combination Emax of 0.7 or above?
// result 0.0
